Target: 4-hydroxyphenylpyruvate dioxygenase (Rattus norvegicus, UniProt P32755)
Sequence (P32755 whole entry): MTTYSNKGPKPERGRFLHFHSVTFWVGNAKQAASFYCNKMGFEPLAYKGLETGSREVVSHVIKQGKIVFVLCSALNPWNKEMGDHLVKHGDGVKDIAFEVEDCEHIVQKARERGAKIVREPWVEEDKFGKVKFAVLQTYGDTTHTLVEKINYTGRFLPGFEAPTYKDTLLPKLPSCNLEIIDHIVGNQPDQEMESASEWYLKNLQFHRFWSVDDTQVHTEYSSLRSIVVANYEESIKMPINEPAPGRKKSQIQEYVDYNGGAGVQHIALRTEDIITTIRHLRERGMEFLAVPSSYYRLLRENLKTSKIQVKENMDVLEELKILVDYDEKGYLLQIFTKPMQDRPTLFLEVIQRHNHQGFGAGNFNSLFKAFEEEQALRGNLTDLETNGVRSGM
assay endpoint: IC50

• COc1ccc(-c2c(S(C)(=O)=O)ccc(C(=O)c3cnn(C(C)(C)C)c3O)c2C)cc1 = < 20 nM
